test system: M14 melanoma; experiment: NCI tumour cell line growth inhibition, 48 h; in the data active means GI50 below about 0.43 µM; inactive means the rest
Answer with one of the outcomes given here: active, inactive

A selection of reference data follows.
CC12OC(C(=O)C13CC3)C1C(=O)c3ccccc3C(=O)C12 (stereo not drawn)    inactive
O=C(c1ccccc1)c1nn(-c2ccc(Cl)cc2)c2nc3nc(-c4ccccc4)cc(=O)n3nc12    inactive
COc1ccc(/C(=C/c2cc(OC)c(OC)c(OC)c2)[N+](=O)[O-])cc1    inactive
O=[N+]([O-])c1ccc(N/N=C\c2cc(Cl)ccc2O)nc1    inactive
CCCCCCCCCCCCCCCCCCNC(=O)[C@H]1CSC(c2ccc(OC)c(F)c2)N1 (stereo partly drawn)    inactive

Can you look up the reported call for "COc1cc2cc(Oc3ccc(NC(=O)Nc4cccc(C(F)(F)F)c4)cc3)c(C)nc2cc1OCCN1CCCCC1" for me?
inactive

Can you look up the reported call for "CCOC(=O)/N=c1\ss/c(=N\C(=S)N(C)C)n1-c1ccccc1" for me?
inactive

Can you look up the reported call for "COc1cc[nH]c1/C=C1\C(=O)Nc2ccc(F)c(C#C[C@@H](O)[C@@H](N)[C@@H](C)O)c21" for me?
active

###

test system: LOX IMVI melanoma; test: NCI tumour cell line growth inhibition, 48 h
observed-property: GI50

GET /values?readout=GI50&item= CCCCCCCCCCCCCCCCCCNC(=O)[C@H]1CSC(c2ccc(OC)c(F)c2)N1 (stereo partly drawn)
2.68 µM

GET /values?readout=GI50&item= "O=[N+]([O-])c1ccc(Sc2ncccn2)c([N+](=O)[O-])c1"
4.3 µM

GET /values?readout=GI50&item= "O/N=C1\CCc2cc(-c3nc(C4CCNCC4)[nH]c3-c3ccncc3)ccc21"
> 25 µM

###

test system: OVCAR-3 ovarian; experiment: NCI tumour cell line growth inhibition, 48 h
observed-property: TGI
Number plus unit, in that order.

Solved entries:
Cc1cc2c(C)c3cc(C)c(N)cc3nc2cc1N    5.35 µM
C=C(c1ccccc1N)[C@@]1(O)C[C@H](/C(=C\C)CO)C[C@@H]1NCc1ccccc1    45.8 µM
N#C/C(=C\c1c(-c2ccccc2)[nH]c2ccccc12)C(=O)c1ccc(Cl)cc1    4.65 µM

Kindly review the next compound as well.
GET /values?readout=TGI&item= CC(=O)O[C@H]1C(=O)[C@@]2(C)C([C@H](OC(=O)c3ccccc3)[C@]3(O)C[C@H](OC(=O)[C@H](O)[C@H](NC(=O)c4ccccc4)c4ccc(Cl)cc4)C(C)=C1C3(C)C)C1(OC(C)=O)CO[C@@H]1C[C@@H]2O (some centres undefined)
0.0124 µM

###

test system: PC-3 prostate; test: NCI tumour cell line growth inhibition, 48 h
observed-property: TGI

Nc1ccn(C=C=CCO)c(=O)n1    > 1000 µM
O=C(O)C(Cc1ccc2c(c1)CCC2)(Cc1ccc2c(c1)CCC2)C(=O)O    > 100 µM
COc1cc2c(cc1OC)C(=O)C(Br)CC2 (stereo not given)    23.1 µM
O=C1C=C[C@]2(C[C@@H](c3cccc(C(F)(F)F)c3)O[C@@H](c3cccc(C(F)(F)F)c3)O2)O1    8.27 µM
Cc1ccc(-c2sc(-c3ccc(C)cc3)c3c2C2CCC3C2)cc1    > 50 µM
O=C(NCCN1C(=O)CN=C(c2ccc(Cl)cc2)c2cc(Cl)ccc21)OCc1ccccc1    28.3 µM

GET /values?readout=TGI&item= "N#Cc1ncn(-c2ccccc2)c1N"
> 100 µM

###

system: UO-31 renal; test: NCI tumour cell line growth inhibition, 48 h; in the data active = GI50 below about 0.43 µM; inactive = the rest
Answer with one of the outcomes given here: t for active, f for inactive

A selection of reference data follows.
CC(=O)c1ccc(Nc2cc(-n3ccnc3)nc3ccccc23)cc1    f
O=C(Nc1ccncc1)C(=O)c1cn(S(=O)(=O)c2ccc(Br)cc2)c2ccccc12    f
O=[N+]([O-])c1ccc(N/N=C\c2cc(Cl)ccc2O)nc1    t
COc1cc2cc(Oc3ccc(NC(=O)Nc4cccc(C(F)(F)F)c4)cc3)c(C)nc2cc1OCCN1CCCCC1    f

Can you look up the reported call for Nc1cccc2c1C(=O)N(C1CCC(=O)NC1=O)C2=O (configuration not stated) for me?
f

Can you look up the reported call for CCCCCCCCCCCCCCCCCCNC(=O)[C@H]1CSC(c2ccc(OC)c(F)c2)N1 (some centres not stated) for me?
f

Can you look up the reported call for "O=C1c2cc3c(cc2-c2c1c1cc(Cl)c(Cl)cc1c(=O)n2CCCn1ccnc1)OCO3" for me?
t

###

system: MOLT-4 leukemia; test: NCI tumour cell line growth inhibition, 48 h
Form field: TGI (one value per entry).

CCCCN(CCCC)C(=O)C(=O)CC(=O)c1ccc(Br)cc1    > 100 µM
CC(C)=CC(=O)CC(=O)C(=O)Nc1ccc(C)c(C)c1    > 100 µM
COC(=O)Nc1nc2ccc(C(=O)c3ccc[nH]3)cc2[nH]1    > 100 µM
COc1cc[nH]c1/C=C1\C(=O)Nc2ccc(F)c(C#C[C@@H](O)[C@@H](N)[C@@H](C)O)c21    2.06 µM
C/C(=N\NC(=S)Nc1ccc(C(=O)O)cc1)c1ccccn1    > 100 µM

GET /values?readout=TGI&item= COc1cc2c(cc1OC)C(=O)C(Br)CC2 (stereo unspecified)
15 µM

###

tested on: HT29 colon; experiment: NCI tumour cell line growth inhibition, 48 h; in the data active = GI50 below about 0.43 µM; inactive = the rest
Answer with one of the outcomes given here: active, inactive

A selection of reference data follows.
Nc1ccn(C=C=CCO)c(=O)n1    inactive
COC(=O)c1cnc(=O)n(C2CC(O)C(CO)O2)c1 (stereo unspecified)    inactive
O=C(c1cccs1)c1c(C(F)(F)F)n([O-])c2ccc(C(F)(F)F)cc2[n+]1=O    active
O=C(Nc1n[nH]c2nc(-c3ccco3)c(Br)cc12)C1CC1    inactive
COc1ccc(-c2cc(-c3ccc(Nc4nc(Nc5ccc(Cl)cc5)nc(Nc5ccc(Cl)cc5)n4)cc3)nc(N)c2C#N)cc1    inactive

Can you look up the reported call for "CCCCCCCCCCCCc1ccc(C(=O)/C=C/C(=O)O)cc1" for me?
inactive

Can you look up the reported call for "Cc1ccc(-c2c(C#N)c(N)nc(N3CCOCC3)c2C#N)o1" for me?
inactive

Can you look up the reported call for "OB([O][Hg][c]1ccccc1)[O][Hg][c]1ccccc1" for me?
active

Can you look up the reported call for "C[C@@H](c1ccc2nccn2c1)n1nnc2ncc(-c3cnn(C)c3)nc21" for me?
inactive

Can you look up the reported call for "Cc1cc2c(C)c3cc(C)c(N)cc3nc2cc1N" for me?
active

Can you look up the reported call for "CC1(C)N=C(N)N=C(N)N1c1cccc(/C=C/C=C/c2cccc([N+](=O)[O-])c2)c1" for me?
inactive

Can you look up the reported call for "COc1ccc(/C(=C/c2cc(OC)c(OC)c(OC)c2)[N+](=O)[O-])cc1" for me?
inactive

Can you look up the reported call for "O=C1C=C[C@]2(C[C@@H](c3cccc(C(F)(F)F)c3)O[C@@H](c3cccc(C(F)(F)F)c3)O2)O1" for me?
inactive

Can you look up the reported call for "O/N=C1\CCc2cc(-c3nc(C4CCNCC4)[nH]c3-c3ccncc3)ccc21" for me?
inactive

Can you look up the reported call for "COc1ccc(N(C)c2nc(C)nc3ccccc23)cc1" for me?
active

Can you look up the reported call for O=C(CCCc1c[nH]c2ccccc12)NC1CC(=O)c2c(Br)sc(Br)c21 (stereo unspecified) for me?
inactive

###

tested on: OVCAR-8 ovarian; assay: NCI tumour cell line growth inhibition, 48 h
Form field: GI50 (one value per entry).

Solved entries:
COc1ccc(/C=C2\CN(C(=O)CCN3CCC(=NO)CC3)C/C(=C\c3ccc(OC)cc3)C2=O)cc1    3.22 µM
CC1(C)CC(=O)C2=C(C1)NC(SSC1=C(C#N)C(c3ccccc3)C3=C(CC(C)(C)CC3=O)N1)=C(C#N)C2c1ccccc1 (stereo not drawn)    31.6 mg/L
CCOC(=O)CCC(NC(=O)c1ccc(N=Cc2nc3cc(C(F)(F)F)ccc3nc2-c2ccccc2)cc1)C(=O)OCC (stereo not drawn)    > 100 µM
CCCCCCCCCCCCc1ccc(C(=O)/C=C/C(=O)O)cc1    3.44 µM
CCCCCCCCCCCCCCCCCCNC(=O)[C@H]1CSC(c2ccc(OC)c(F)c2)N1 (stereo partly drawn)    2.56 µM

GET /values?readout=GI50&item= Cc1ccc(S(=O)(=O)NC(CCC(=O)Nc2ccc(Cl)cc2)C(=O)Nc2ccc(Cl)cc2)cc1 (stereo not drawn)
0.724 µM

GET /values?readout=GI50&item= "O=[N+]([O-])c1ccc(Sc2ncccn2)c([N+](=O)[O-])c1"
4.33 µM

GET /values?readout=GI50&item= "CC(=O)[CH-]C(=O)c1ccccc1.CC(=O)[CH-]C(=O)c1ccccc1.CCN(CC)CC[O-].CCN(CC)CC[O-].Cl.[Ti+4]"
38.8 µM
